- assay-system: PYL5 (Arabidopsis thaliana, UniProt Q9FLB1)
- Construct: 6X-His; made in house; host or cells: E. coli BL21[DE3]pLysS
- Sequence (Q9FLB1 1-203): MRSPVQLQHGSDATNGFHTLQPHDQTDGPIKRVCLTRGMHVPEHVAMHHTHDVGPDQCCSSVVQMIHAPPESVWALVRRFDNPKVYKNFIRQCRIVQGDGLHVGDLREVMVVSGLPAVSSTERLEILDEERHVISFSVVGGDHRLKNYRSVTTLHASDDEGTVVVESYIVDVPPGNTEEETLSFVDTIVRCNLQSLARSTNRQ
- Sequence (Q9CAJ0 23-511 partner): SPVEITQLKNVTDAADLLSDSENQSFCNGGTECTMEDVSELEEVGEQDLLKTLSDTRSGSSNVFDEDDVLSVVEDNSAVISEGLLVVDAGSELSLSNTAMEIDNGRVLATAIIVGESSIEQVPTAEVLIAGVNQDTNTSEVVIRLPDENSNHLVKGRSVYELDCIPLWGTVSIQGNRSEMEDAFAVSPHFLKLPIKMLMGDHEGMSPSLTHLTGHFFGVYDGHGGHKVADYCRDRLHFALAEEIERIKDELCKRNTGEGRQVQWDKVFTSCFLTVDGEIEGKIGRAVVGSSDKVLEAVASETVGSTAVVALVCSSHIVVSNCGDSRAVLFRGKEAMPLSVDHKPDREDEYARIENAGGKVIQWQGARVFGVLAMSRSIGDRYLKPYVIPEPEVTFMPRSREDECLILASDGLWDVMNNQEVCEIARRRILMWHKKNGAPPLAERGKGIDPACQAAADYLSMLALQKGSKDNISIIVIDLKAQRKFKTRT
- assay-summary: receptor-mediated PP2C (HAB1) inhibition in vitro assay
- Type: biochemical
- condition-label: Table VII; read-out: PP2C Dose Curves PYL5 (IC50)
value-kind: IC50 (µM)

In the examples that follow, each entry is paired with its recorded IC50.
N#Cc1ccc(CS(=O)(=O)NC(=O)C2(c3cccc(F)c3)CC2)cc1: 7.06
CC(C)(C(=O)NS(=O)(=O)Cc1ccc([N+](=O)[O-])cc1)c1ccccc1: 29.5
N#Cc1ccc(CS(=O)(=O)NC(=O)C2(c3ccc(Br)cc3)CC2)cc1: 0.86

I: CC(C)(C(=O)NS(=O)(=O)Cc1ccc(C#N)cc1)c1ccc(F)cc1
II: CC(C)(C(=O)NS(=O)(=O)Cc1ccc(C#N)cc1)c1cccc(C#N)c1
Lower IC50: I or II ? State your choice using its label.
II
(II: 1.95 µM, I: 11.1 µM)

1: CC(C)(C(=O)NS(=O)(=O)Cc1ccc(C#N)cc1)c1ccc(Cl)c(Cl)c1
2: N#Cc1ccc(CS(=O)(=O)NC(=O)C2(c3ccc(F)cc3)CC2)cc1
Lower IC50: 1 or 2 ? State your choice using its label.
2
(2: 3.91 µM, 1: 10.7 µM)

a: COc1ccccc1C1(C(=O)NS(=O)(=O)Cc2ccc(C#N)cc2)CCC1
b: Cc1ccccc1C1(C(=O)NS(=O)(=O)Cc2ccc(C#N)cc2)CC1
Endpoint returns the identifier whose IC50 is numerically larger, either a or b . State your choice using its label.
a
(a: 29.4 µM, b: 2.48 µM)
